Just for reference, paper PMC4143156 is where these values come from.

target: HLA-DQ2 (DQA1*0501, DQB1*0201) (human (endogenous in B-LCL)); assay: affinity purification with mass spectrometry
OBSERVED_PROPERTY: pmol of peptide eluted from 50 μg of affinity-purified class II (pmol)
// note: answer is a bare numeric in pmol

Exercise: GET /values?readout=pmol of peptide eluted from 50 μg of affinity-purified class II&item= LPKPPKPVSKMRMATPLLMQA [Ii81-101]
Solution: 88.4

Exercise: GET /values?readout=pmol of peptide eluted from 50 μg of affinity-purified class II&item= PKPPKPVSKMRMATPLLMQALP [Ii82-103]
Solution: 36.8

Exercise: GET /values?readout=pmol of peptide eluted from 50 μg of affinity-purified class II&item= MATPLLMQALPMGALP [Ii93-108]
Solution: 156

Exercise: GET /values?readout=pmol of peptide eluted from 50 μg of affinity-purified class II&item= MATPLLMQALPMGALPQ [Ii93-109]
Solution: 3.8

Exercise: GET /values?readout=pmol of peptide eluted from 50 μg of affinity-purified class II&item= LPKPPKPVSKMRMATPLLMQALP [Ii81-103]
Solution: 71.1
